tested on: SK-MEL-28 melanoma; experiment: NCI tumour cell line growth inhibition, 48 h

{"molecule": "Cc1nc2ccc(Nc3nc(Cl)nc(N4CCOCC4)n3)cc2n1Cc1ccccc1", "target": "SK-MEL-28 melanoma", "GI50": "1750 nM"}
{"molecule": "CCN(Cc1ccc(C)cc1)c1ccc(CO)c(Cl)c1", "target": "SK-MEL-28 melanoma", "GI50": "13300 nM"}
{"molecule": "COc1cc(/C=C\\c2cc(OC)c(OC)c(OC)c2)cc(N/C=C\\C(=O)c2ccc(OC(F)(F)F)cc2)c1OC", "target": "SK-MEL-28 melanoma", "GI50": "10400 nM"}
{"molecule": "CCN(CC)c1ccc(/C=N/NC(=O)CSc2nc3ccccc3c(=O)n2CCc2ccc(S(N)(=O)=O)cc2)c(O)c1", "target": "SK-MEL-28 melanoma", "GI50": "2690 nM"}
{"molecule": "O=S(=O)(NCCCNc1nccc(-c2c(-c3ccc(O)cc3)nc3sccn23)n1)c1ccc(F)cc1", "target": "SK-MEL-28 melanoma", "GI50": "52.8 nM"}
{"molecule": "O=C(Cc1ccc(/C=C/C(=O)c2ncc[nH]2)cc1)Nc1ccc(F)cc1", "target": "SK-MEL-28 melanoma", "GI50": "6260 nM"}
{"molecule": "CCCCCCCCCCCCOC1C(CNC(=O)C2OC3OC(C)(C)OC3C2NC(=O)Nc2ccc(CC(=O)OC)cc2)OC2OC(C)(C)OC21 (stereo not given)", "target": "SK-MEL-28 melanoma", "GI50": "> 100000 nM"}
{"molecule": "O=Nc1ccc(O)c(=O)cc1", "target": "SK-MEL-28 melanoma", "GI50": "2260 nM"}
{"molecule": "Fc1cc2[nH]ncc2c2c3c(c(-c4cn[nH]c4C(F)(F)F)nc12)CCCC3", "target": "SK-MEL-28 melanoma", "GI50": "1410 nM"}
{"molecule": "CC(=O)c1ccc2c(c1)c1cc(C(C)=O)ccc1n2CCNC(C)C", "target": "SK-MEL-28 melanoma", "GI50": "326 nM"}

----------
system: M19-MEL melanoma; assay: NCI tumour cell line growth inhibition, 48 h
Reported TGI values for the following molecules.

{"molecule": "N#Cc1c(-c2ccc(Cl)c(Cl)c2)c(-c2ccc(Cl)c(Cl)c2)nn(CC(=O)O)c1=O", "TGI": "> 100 µM"}
{"molecule": "CC(C)(O)[C@@H]1CC[C@@]2(C)CCCC(O)C2(O)C1 (stereo not given in full)", "TGI": "> 100 µM"}
{"molecule": "CCCCCN(CCCCC)C(=O)[C@@H](CCC(=O)O)NC(=O)c1cc2ccccc2[nH]1", "TGI": "40.9 µM"}
{"molecule": "O=c1ccc2nc3cc(Br)ccc3sc-2c1", "TGI": "> 100 µM"}
{"molecule": "N#CC12Cc3cc4c(cc3-c3cccc(c31)CCN2C(=O)c1ccccc1)OCO4 (stereo not given)", "TGI": "> 100 µM"}
{"molecule": "COP(=O)(OC)C(=O)N1N(c2ccc([N+](=O)[O-])cc2)C(=O)C(C)NC1(NNc1ccc([N+](=O)[O-])cc1)P(=O)(OC)OC (stereo not given)", "TGI": "> 100 µM"}
{"molecule": "N#CCCN(c1ccc(C=Nc2ccccc2)cc1)S(=O)(=O)c1ccccc1", "TGI": "> 100 µM"}
{"molecule": "N#Cc1cccc2c1Nc1ccccc1S2", "TGI": "> 100 µM"}
{"molecule": "CC(C)(CN1CCCCC1)C(=O)/C=C/c1ccc(/C=C/C(=O)C(C)(C)CN2CCCCC2)cc1", "TGI": "2.35 µM"}
{"molecule": "O=C1NC(Cc2ccc(O)cc2)C(=O)N2CCCC12 (stereo not given)", "TGI": "> 100 µM"}

Data provenance: PubChem BioAssay (NCI)
